- Test system: replication-induced senescent mouse newborn dermal fibroblasts (NBF)
- PROTOCOL DETAILS: relative cell viability of senescent cells (fraction); higher = less killing of senescent cells
- CONDITION PARAMETERS: 1 µM; 3 days
Counter-ions that a name gives are not always drawn.
I'd appreciate it if you marked entries yes when relative cell viability is lower than 1 and no when it is not.

1. N=C(N)NC(=O)c1nc(Cl)c(N)nc1N [Amiloride HCl] :: yes
2. C[C@]12CC[C@@H]3c4ccc(O)cc4CC[C@H]3[C@@H]1CC[C@@H]2O [Estradiol] :: no
3. COCCc1ccc(OCC(O)CNC(C)C)cc1 (configuration not stated) [Metoprolol Tartrate] :: no
4. CC(C)(C)c1cc(C(C)(C)C)c(NC(=O)c2c[nH]c3ccccc3c2=O)cc1O [Ivacaftor (VX-770)] :: yes
5. CC1(C)CCC(c2ccc(Cl)cc2)=C(CN2CCN(c3ccc(C(=O)NS(=O)(=O)c4ccc(N[C@H](CCN5CCOCC5)CSc5ccccc5)c(S(=O)(=O)C(F)(F)F)c4)cc3)CC2)C1 [Navitoclax (ABT-263)] :: no
6. COc1cccc2c1C(=O)c1c(O)c3c(c(O)c1C2=O)CC(O)(C(=O)CO)CC3OC1CC(N)C(O)C(C)O1 (configuration not stated) [Doxorubicin (Adriamycin) HCl] :: yes
7. NC(=O)c1ccc(I)c([N+](=O)[O-])c1 [Iniparib (BSI-201)] :: yes
8. CC(C)Cc1ccc(C(C)C(=O)O)cc1 (configuration not stated) [Ibuprofen] :: yes
9. NS(=O)(=O)Cc1noc2ccccc12 [Zonisamide] :: no
10. CCN(CC)CCNC(=O)c1c(C)[nH]c(/C=C2\C(=O)Nc3ccc(F)cc32)c1C [Sunitinib Malate] :: no
11. CCc1cc(C(N)=S)ccn1 [Ethionamide] :: yes
12. CN(C)CC/C=C1/c2ccccc2Sc2ccc(Cl)cc21 [Chlorprothixene] :: no
13. COC(=O)Nc1nc2cc(C(=O)c3ccc(F)cc3)ccc2[nH]1 [Flubendazole] :: yes
14. CC(C)[N+]1(C)[C@@H]2CC[C@H]1C[C@@H](OC(=O)C(CO)c1ccccc1)C2 (some centres not stated) [Ipratropium Bromide] :: yes
15. COc1ccc(CC2c3cc(OC)c(OC)cc3CC[N+]2(C)CCC(=O)OCCCCCOC(=O)CC[N+]2(C)CCc3cc(OC)c(OC)cc3C2Cc2ccc(OC)c(OC)c2)cc1OC (configuration not stated) [Atracurium Besylate] :: no
16. O=C(N[C@H](CO)[C@H](O)c1ccc([N+](=O)[O-])cc1)C(Cl)Cl [Chloramphenicol] :: yes

====

Each item that follows carries a reported relative cell viability.
- Test system: replication-induced senescent mouse newborn dermal fibroblasts (NBF)
- PROTOCOL DETAILS: relative cell viability of senescent cells (fraction); higher = less killing of senescent cells
- CONDITION PARAMETERS: 1 µM; 3 days
Counter-ions that a name gives are not always drawn.
REPORTED PROPERTY: relative cell viability

1) CO[C@H]1C[C@@H]2CC[C@@H](C)[C@@](O)(O2)C(=O)C(=O)N2CCCC[C@H]2C(=O)O[C@H]([C@H](C)C[C@@H]2CC[C@@H](OCCO)[C@H](OC)C2)CC(=O)[C@H](C)/C=C(\C)[C@@H](O)[C@@H](OC)C(=O)[C@H](C)C[C@H](C)/C=C/C=C/C=C/1C [Everolimus (RAD001)] :: 0.765
2) Nc1nc(=O)[nH]cc1F :: 0.996
3) COc1cc2nc(N(C)CCCNC(=O)C3CCCO3)nc(N)c2cc1OC (stereo not drawn) [Alfuzosin HCl] :: 0.96
